Assay: solvent given as SMILES
Conditions: in CCCCCO
Listed below: solvation free energy, 298 K values for each entry.

| compound | solvation free energy, 298 K |
| --- | --- |
| CCCCCCCCCCCCCCCCCCCCCCCC | -14.1 kcal/mol |
| CCCO | -5.43 kcal/mol |
| CC(C(=O)O)c1ccc(-c2ccccc2)c(F)c1 (stereo unspecified) | -15.7 kcal/mol |
| c1ccc2c(c1)Cc1ccccc1O2 | -9.57 kcal/mol |
| O=C(O)c1ccc([N+](=O)[O-])cc1 | -12 kcal/mol |
| CN(C)C(=O)Nc1ccc(Cl)cc1 | -13.2 kcal/mol |
| CCCC#N | -4.47 kcal/mol |
| FS(F)(F)(F)(F)F | 0.29 kcal/mol |
| O=C1c2ccccc2C(=O)c2c(Cl)cccc21 | -12.9 kcal/mol |
| C=C(C)C1CCC2(CO)CCC3(C)C(CCC4C5(C)CCC(O)C(C)(C)C5CCC43C)C12 (stereo unspecified) | -27.6 kcal/mol |
| C=CCC | -2.01 kcal/mol |
| COC | -1.98 kcal/mol |
| CC(C)(C)Cl | -3.23 kcal/mol |
| COC(=O)c1ccc(O)cc1 | -12 kcal/mol |
| CC(=O)Oc1ccccc1C(=O)O | -13.3 kcal/mol |
| C=C | -0.48 kcal/mol |

----------
Assay: solvent given as SMILES
Details: in O
quantity-measured: solvation free energy, 298 K (kcal/mol)

| molecule | quantity-measured | value-measured |
| --- | --- | --- |
| CCCCCCCCOC(=O)c1ccccc1C(=O)OCCCCCCCC | solvation free energy, 298 K | -6.68 |
| Clc1ccc(-c2ccc(Cl)cc2Cl)cc1 | solvation free energy, 298 K | -2.77 |
| CCNc1nc(NCC)nc(OC)n1 | solvation free energy, 298 K | -10.6 |
| CN(C)CCc1ccc(O)cc1 | solvation free energy, 298 K | -11.3 |
| Cc1ccccc1C(=O)N(O)c1ccccc1C | solvation free energy, 298 K | -11.2 |
| Cc1nnc(NS(=O)(=O)c2ccc(N)cc2)s1 | solvation free energy, 298 K | -19.3 |
| O=[N+]([O-])c1cccc(O)c1 | solvation free energy, 298 K | -9.63 |
| Clc1ccc2c(c1)Oc1c(Cl)c(Cl)c(Cl)c(Cl)c1O2 | solvation free energy, 298 K | -4.15 |
| CCCCCCCC(C)O (stereo not drawn) | solvation free energy, 298 K | -3.57 |
| C=C(C)C1CCC2(C)CCCC(=C)C2C1 (stereo not drawn) | solvation free energy, 298 K | -0.05 |
| COc1cc(C=O)ccc1O | solvation free energy, 298 K | -8.76 |
| CCCCCN(C)N=O | solvation free energy, 298 K | -5.05 |
| O=C(OC1CCCCCC1)c1ccccc1C(=O)OC1CCCCCC1 | solvation free energy, 298 K | -8.87 |
| C=C1C2CCC3C2C(C)(C)CCCC13C (stereo not drawn) | solvation free energy, 298 K | 0.8 |
| O=[N+]([O-])c1ccccc1 | solvation free energy, 298 K | -4.23 |
| COc1ccc2c(c1)c(CC(=O)O)c(C)n2C(=O)c1ccc(Cl)cc1 | solvation free energy, 298 K | -15.1 |
| CC1=CCC(C(C)C)c2cc(C)ccc21 (stereo not drawn) | solvation free energy, 298 K | -1.12 |
| CCC=CCC | solvation free energy, 298 K | 1.62 |
| CCCCC(C)C | solvation free energy, 298 K | 2.93 |
| C=CCCC=C | solvation free energy, 298 K | 0.97 |
| CN(C)c1ccc(C(=O)O)cc1 | solvation free energy, 298 K | -9.28 |
| Cc1ccccc1Cl | solvation free energy, 298 K | -1.14 |
| CCCC(C)C | solvation free energy, 298 K | 2.51 |
| [N-]=[N+]=O | solvation free energy, 298 K | 0.31 |
| CC(C)(C)C | solvation free energy, 298 K | 2.66 |
| CC(C(=O)O)c1ccc(-c2ccccc2)c(F)c1 (stereo not drawn) | solvation free energy, 298 K | -8.42 |
| O=C(C(=O)c1ccccc1)c1ccccc1 | solvation free energy, 298 K | -6.64 |
| c1ccc2c(c1)Cc1ccccc1C2 | solvation free energy, 298 K | -3.78 |
| Cc1c[nH]c2ccccc12 | solvation free energy, 298 K | -5.88 |
| C=C | solvation free energy, 298 K | 1.28 |
| CCc1ccccn1 | solvation free energy, 298 K | -4.33 |
| CN(C)C(=O)Nc1ccc(Cl)c(Cl)c1 | solvation free energy, 298 K | -10.9 |
| CCCC=CC=O | solvation free energy, 298 K | -3.68 |
| COC(=O)c1ccccc1 | solvation free energy, 298 K | -3.91 |
| c1ccc2c(c1)sc1ccccc12 | solvation free energy, 298 K | -4.05 |
| c1ccc2c(c1)Oc1ccccc1O2 | solvation free energy, 298 K | -3.15 |
| CCCCCO | solvation free energy, 298 K | -4.56 |
| C=C(C)C1CC=C(C)C(OC=O)C1 (stereo not drawn) | solvation free energy, 298 K | -3.82 |
| Cc1cccc(C)c1O | solvation free energy, 298 K | -5.26 |
| O=[N+]([O-])c1ccc(O)c([N+](=O)[O-])c1 | solvation free energy, 298 K | -7.61 |
| CC12C=CC(C1)C(C)(C)C2 (stereo not drawn) | solvation free energy, 298 K | 0.64 |
| CC(=O)CCCC(C)C | solvation free energy, 298 K | -3 |
| CCOc1ccccc1 | solvation free energy, 298 K | -2.22 |
| c1ccsc1 | solvation free energy, 298 K | -1.39 |
| CC[N+](=O)[O-] | solvation free energy, 298 K | -3.72 |
| CCOC(OCC)Oc1ccccc1 | solvation free energy, 298 K | -5.23 |
| Nc1ccccc1-c1ccccc1 | solvation free energy, 298 K | -7.27 |
| O=C=O | solvation free energy, 298 K | 0.11 |
| O=C1NC(=O)C(c2ccccc2)(c2ccccc2)N1 | solvation free energy, 298 K | -16.7 |
| CN(C)N=O | solvation free energy, 298 K | -6.02 |
| Cc1ccccc1N(O)C(=O)c1ccc(Cl)cc1 | solvation free energy, 298 K | -10.8 |
| ClC(Cl)=C(c1ccc(Cl)cc1)c1ccc(Cl)cc1 | solvation free energy, 298 K | -3.78 |
| CC(=O)Cc1ccccc1 | solvation free energy, 298 K | -5.62 |
| CCCCCCCCCC(C)C | solvation free energy, 298 K | 4.04 |
| CCCI | solvation free energy, 298 K | -0.56 |
| c1cc2c3c(cccc3c1)CC2 | solvation free energy, 298 K | -3.18 |
| CC(=O)OCC1=CCC2CC1C2(C)C (stereo not drawn) | solvation free energy, 298 K | -3.6 |
| CCOC(C)O (stereo not drawn) | solvation free energy, 298 K | -6.7 |
| Nc1ccc([N+](=O)[O-])cc1Cl | solvation free energy, 298 K | -8.74 |
| NCCc1ccccc1 | solvation free energy, 298 K | -6.56 |
| CC(C)COC(=O)C(C)C | solvation free energy, 298 K | -1.69 |
| O=C1NC(=O)c2ccccc21 | solvation free energy, 298 K | -9.61 |
| CCCC(=O)OCC | solvation free energy, 298 K | -2.52 |
| O=S=O | solvation free energy, 298 K | -2.07 |
| CC12CCC(=O)C=C1CCC1C2C(O)CC2(C)C1CCC2(O)C(=O)C(O)C(CCCCC(N)=O)C(N)=O (stereo not drawn) | solvation free energy, 298 K | -33.7 |
| CC(C)CCOC=O | solvation free energy, 298 K | -2.13 |
| Cc1cccc(C)n1 | solvation free energy, 298 K | -4.59 |
| Cc1cc(NS(=O)(=O)c2ccc(N)cc2)no1 | solvation free energy, 298 K | -17.8 |
